Assignment: determine reported LEUKOCYTE COUNT for the given compounds.
species: Rattus norvegicus; experiment: DrugMatrix - Regimen: Daily Repeat; type: toxicity, organism-based, Sprague-Dawley; parameters: regimen Daily Repeat, gender Male, age 6-8 weeks; details: in vivo, po, 0 mg/kg, 72 h, tissue Blood, route oral GAVAGE, dose level Control, time 3 day, vehicle 100 % WATER
Express the result in x10E3/uL but write the number alone.

Exercise: Given CCN(CC)C(=S)SSC(=S)N(CC)CC , state its recorded LEUKOCYTE COUNT.
Key: 12.87

Exercise: Also check C1CCN2C[C@@H]3C[C@@H](CN4CCCC[C@@H]34)[C@H]2C1
Key: 13.43

Exercise: Also check C[N+](C)(C)CCOC(N)=O.[Cl-]
Key: 9.43

Exercise: Also check CCC1(c2ccccc2)C(=O)NC(=O)NC1=O
Key: 10.2

Exercise: Also check NN [HYDRAZINE]
Key: 13.85

Exercise: Also check Cc1cc(C(C)(C)C)c(O)c(C)c1CC1=NCCN1
Key: 14.02

Exercise: Also check CC(Cl)(Cl)Cl
Key: 13.43

Exercise: Also check Cc1cn([C@H]2C=C[C@@H](CO)O2)c(=O)[nH]c1=O
Key: 9.43

Exercise: Also check CN1C(=O)OC(C)(C)C1=O
Key: 13.7
